B1: Pistol ribozyme (parent)
chain: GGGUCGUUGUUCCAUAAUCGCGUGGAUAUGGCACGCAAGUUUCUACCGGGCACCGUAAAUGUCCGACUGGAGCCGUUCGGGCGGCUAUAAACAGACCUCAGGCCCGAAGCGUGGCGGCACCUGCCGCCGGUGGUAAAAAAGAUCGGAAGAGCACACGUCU

variants of: B1; assay: aptazyme ON/OFF ratio, guanine; higher = stronger switching; co-transcriptional cleavage with and without guanine

{"CHANGE": "U8A G9U U11G C12A", "aptazyme ON/OFF ratio": 1.07}
{"CHANGE": "U7G U8G G9U U10A U11A C12G C13A", "aptazyme ON/OFF ratio": 1.2}
{"CHANGE": "U7C U8A G9A U11C C12G C13U", "aptazyme ON/OFF ratio": 1.18}
{"CHANGE": "U7A U8C G9A U10C C12G C13A", "aptazyme ON/OFF ratio": 1.12}
{"CHANGE": "U8A G9C U11G C12G C13U", "aptazyme ON/OFF ratio": 1.07}
{"CHANGE": "U8C U10C U11C C12A", "aptazyme ON/OFF ratio": 1.25}
{"CHANGE": "U7G U8C U11C C13U", "aptazyme ON/OFF ratio": 1.32}
{"CHANGE": "U7G U8G G9U U10A U11A C12G", "aptazyme ON/OFF ratio": 1.19}
{"CHANGE": "U7A U8G U11G C12U C13U", "aptazyme ON/OFF ratio": 1.22}
{"CHANGE": "U7C U8C G9C", "aptazyme ON/OFF ratio": 1.13}
{"CHANGE": "U7A U8C U10A C12U", "aptazyme ON/OFF ratio": 1.1}
{"CHANGE": "U8A G9A U10G U11C C12A C13A", "aptazyme ON/OFF ratio": 1.12}
{"CHANGE": "U7G U8C G9U U10C U11G C12U C13U", "aptazyme ON/OFF ratio": 1.28}
{"CHANGE": "U7A U8A U11A C12G", "aptazyme ON/OFF ratio": 1.2}
{"CHANGE": "U7G U8G G9U U10G C12U", "aptazyme ON/OFF ratio": 1.13}
